Target: human CD33 variant Y50P (human, UniProt P20138 18-364)
Sequence (P20138 18-364 Y50P limits assumed): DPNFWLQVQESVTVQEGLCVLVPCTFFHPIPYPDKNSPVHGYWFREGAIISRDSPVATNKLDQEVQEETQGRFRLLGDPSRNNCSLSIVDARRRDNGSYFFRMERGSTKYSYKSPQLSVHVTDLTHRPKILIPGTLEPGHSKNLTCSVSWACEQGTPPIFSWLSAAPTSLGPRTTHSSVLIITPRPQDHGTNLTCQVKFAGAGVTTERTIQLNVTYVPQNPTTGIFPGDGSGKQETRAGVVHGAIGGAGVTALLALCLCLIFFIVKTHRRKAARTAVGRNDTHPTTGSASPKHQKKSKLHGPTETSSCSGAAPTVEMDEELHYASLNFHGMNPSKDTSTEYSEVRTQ
Test: flow cytometry, IgG on cells expressing the mutant
MEASUREMENT KIND: Mean % WT Binding

Q) Could you share which Mean % WT Binding value was measured for Refmab #3 (antibody, human IgG1, V domains shown, Tested in IgG format; human IgG1 Fc silent (PG-LALA)) VH: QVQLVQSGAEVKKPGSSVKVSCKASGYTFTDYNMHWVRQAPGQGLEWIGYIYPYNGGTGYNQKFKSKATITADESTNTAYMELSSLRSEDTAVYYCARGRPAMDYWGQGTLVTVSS VL: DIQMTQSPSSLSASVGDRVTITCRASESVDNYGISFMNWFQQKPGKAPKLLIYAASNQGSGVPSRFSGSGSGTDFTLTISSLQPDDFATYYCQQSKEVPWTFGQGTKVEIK ?
A) 103 % of WT
